B1: RTN2 (parent)
chain: SERPLEDLRLRLDHLGWVARGTGS

variants of: B1; assay: protein stability index of a GFP-peptide fusion (GPS, HEK-293T) (PSI 1-6); higher = more stable; settings: c terminus: a fixed tail appended;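 further: lentivirally expressed fusions sorted by FACS into six bins by GFP to DsRed ratio, PSI derived from sequencing read proportions per bin multiplied by bin number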
Threshold rule: protein stability index greater than or equal to 2 is rule met; below that, rule not met.

Mutation list	Label value
T22R	rule met
H14M	rule met
L5T	rule met
A19P	rule met
R20M	rule met
V18E	rule met
L15G	rule met
L8Y	rule met
G23A	rule met
G21I	rule not met
G21K	rule met
D13F	rule not met
L15C	rule met
R9H	rule met
R11W	rule not met
G21V	rule met
E6D	rule not met
L12Y	rule met
L8Q	rule not met
V18H	rule met
L5G	rule met
R9Y	rule met
